Attribute: RP-LC retention time
# Assay comment: gradient 5% acetonitrile 3 min, to 50% in 2 min, to 85% in 15 min, held 3 min, 100 µL/min
# Test settings: column: Zorbax Extend-C18 2.1 x 50 mm; eluents: water / acetonitrile, 0.1% formic acid
Report the value in s with no unit label.

- Compound: "O=C(NCCc1ccsc1)C(=O)Nc1ccccc1F"
  RP-LC retention time, s: 878

// Input: O=S(=O)(Cc1ccccc1)N1CCC(c2noc(-c3cccnc3)n2)C1 (stereo not given) . Output its RP-LC retention time only.
822

Consider the compound CCc1nnc(-c2cn(CC(=O)Nc3ccc(F)c(F)c3)c3ccccc23)o1 and give its recorded RP-LC retention time.
888

Return value of RP-LC retention time for input COc1ccc(Cc2nc3ccccc3n2CC(=O)N2CCCCCC2)cc1OC , no commentary.
653

Supply RP-LC retention time value. Item: O=C(Cn1nc2n(c1=O)CCCC2)Nc1cccc(F)c1
638

====

# Assay comment: gradient 5% acetonitrile 3 min, to 50% in 2 min, to 85% in 15 min, held 3 min, 100 µL/min
# Test settings: column: Zorbax Extend-C18 2.1 x 50 mm; eluents: water / acetonitrile, 0.1% formic acid
Our labelling divides records by RP-LC retention time into ranges: class 0 = under 700 s, class 1 = from 700 s up to 800 s, class 2 = 800 s and over

- Molecule: "CCC(=O)Nc1ccc(C2(C(=O)NC(C)CC)CCCCC2)cc1 (stereo not drawn)"
  Classification: "class 2"
- Molecule: "O=C(NCc1ccc(F)cc1Cl)C1CCCN(c2ncnc3nn(-c4ccc(F)cc4)cc23)C1 (stereo not drawn)"
  Classification: "class 1"
- Molecule: "Cc1c(Cl)cccc1NC(=O)C(C)C1CCN(C(=O)Nc2ccc(F)cc2)CC1 (stereo not drawn)"
  Classification: "class 2"
- Molecule: "COc1ccc(-c2cn3ccn(-c4ccc(OC)cc4)c(=O)c3n2)cc1"
  Classification: "class 1"
- Molecule: "Cc1sc(NC(=O)c2cccc(Br)c2)nc1-c1ccc2c(c1)NC(=O)C(C)O2 (stereo not drawn)"
  Classification: "class 2"
- Molecule: "CC1(O)CCOC2(CCN(Cc3cccc4[nH]ccc34)CC2)C1 (stereo not drawn)"
  Classification: "class 0"
- Molecule: "Cc1cc(=O)n(CC(=O)Nc2cc(F)ccc2C)c(N)n1"
  Classification: "class 0"
- Molecule: "CCCn1cnc2ccc(-c3noc(C(C)NC(=O)c4ccco4)n3)cc21 (stereo not drawn)"
  Classification: "class 0"
- Molecule: "COc1ccc(-c2nc3cnccn3c2Nc2cccc(C)c2C)cc1OC"
  Classification: "class 2"
- Molecule: "COc1ccc(-n2ccc(=O)c(-c3nc(-c4ccc(Cl)cc4)no3)n2)cc1"
  Classification: "class 2"

Assign a bin to CCN1c2ccc(F)cc2C(=O)NC12CCN(C(=O)c1ccc3c(c1)OCO3)CC2
class 1

Note: place this molecule into its band. Item: COc1cccc(Cn2nc3ccc(S(=O)(=O)N4CCC(C)CC4)cn3c2=O)c1
class 2

Which bin should I file CN(C)C(=O)c1csc(S(=O)(=O)N2CCC(C(=O)Nc3ccccc3)CC2)c1 under?
class 1

Band assignment needed for CCc1nc2cc(-c3noc(Cc4c[nH]c5ccccc45)n3)ccc2o1 please.
class 2

Just checking, what class would you give CC(Cc1cccc(C(F)(F)F)c1)NCCCc1ccccc1 (stereo not drawn) here?
class 2
